- target: RanGTP-importin-beta complex (human Ran / KPNB1)
- assay-explanation: disruptors of RanGTP/KPNB1 binding – biochemical, FRET, CFP/YFP, cell-free homogeneous, confirmation (AID 2823)
- assay-conditions: CFP-Ran/YFP-importin-beta FRET ratio
Active and inactive are the calls of the source. No rule for the calls is given here.
observed-property: IC50

Response field IC50 (RanGTP-importin-beta complex (human Ran / KPNB1)) for item COc1ccc(CCn2c(=N)c(C(=O)NCC3CCCO3)cc3c(=O)n4cccc(C)c4nc32)cc1 (stereo not given) : 11.5 µM

Response field IC50 (RanGTP-importin-beta complex (human Ran / KPNB1)) for item COc1cc(C(=O)N2CCCN(c3nc4cc(C)ccc4cc3C#N)CC2)cc(OC)c1OC : 10.9 µM

Response field IC50 (RanGTP-importin-beta complex (human Ran / KPNB1)) for item CC(=O)[C@@H]1[C@@H](C)N(Cc2ccccc2)C(=O)N[C@H]1c1cccc(C(F)(F)F)c1 : > 50 µM (inactive)

Continue with the compound presented below.
Response field IC50 (RanGTP-importin-beta complex (human Ran / KPNB1)) for item Cc1ccccc1Cn1nnc(-c2cccc(C(=O)O)c2)n1 : > 50 µM (inactive)

Cited source for all entries: PubChem BioAssay AID2823
